measurement.description: in vitro
condition.context: human, hela cells, % viability

{"compound": "COCc1cccc(-c2ncc(OCC3COc4ccccc4O3)nc2N)c1 (stereo not shown) [CBK145113]", "unit.abbreviation": "%", "viability at 28.5 h, 10 µM": 93.1}
{"compound": "CC(=O)Nc1ccc(/C(C)=N/Nc2nc(N3CCCC3)nc(N3CCCC3)n2)cc1 [CBK021877]", "unit.abbreviation": "%", "viability at 28.5 h, 10 µM": 89.3}
{"compound": "Cn1nc(-c2ccccc2)cc1[C@H]1CN2CC[C@H]1C[C@@H]2CNC(=O)NCc1ccccc1 [CBK289098]", "unit.abbreviation": "%", "viability at 28.5 h, 10 µM": 104}
{"compound": "CC(C(=O)N1CCCC(COc2ccc(F)cc2)C1)n1ccnc1 (stereo not shown) [CBK282027]", "unit.abbreviation": "%", "viability at 28.5 h, 10 µM": 85.8}
{"compound": "COc1ccccc1CC(=O)N1CCN(Cc2ccco2)C[C@@H]1C [CBK285481]", "unit.abbreviation": "%", "viability at 28.5 h, 10 µM": 105}
{"compound": "CCOc1ccc(OC(=O)c2ccc(OC(F)(F)F)cc2)cc1 [CBK149207]", "unit.abbreviation": "%", "viability at 28.5 h, 10 µM": 95.8}
{"compound": "CCCN1CC(NS(=O)(=O)c2ccc(OC)c3c2CCCC3)CC1=O (stereo not shown) [CBK307098]", "unit.abbreviation": "%", "viability at 28.5 h, 10 µM": 79.7}
{"compound": "CCC(C)(CC(=O)O)CC(=O)N1CCC2(C1)NCCc1c2[nH]c2ccccc12 (stereo not shown) [CBK047003]", "unit.abbreviation": "%", "viability at 28.5 h, 10 µM": 88.5}
{"compound": "Cc1cc(OCC(=O)Nc2ccccc2N2CCN(S(C)(=O)=O)CC2)ccc1Cl [CBK269410]", "unit.abbreviation": "%", "viability at 28.5 h, 10 µM": 103}
{"compound": "COCCOC(=O)C1=C(C)NC2=C(C(=O)CC(c3ccc(OC)cc3)C2)C1c1ccc(F)cc1 (stereo not shown) [CBK293921]", "unit.abbreviation": "%", "viability at 28.5 h, 10 µM": 88.9}
{"compound": "O=C(c1cccnc1)N1CCCC(n2cnc3cc(F)ccc32)C1 (stereo not shown) [CBK284474]", "unit.abbreviation": "%", "viability at 28.5 h, 10 µM": 85.6}
{"compound": "CCCCc1c(C)nc2c(OC)cccc2c1SCCC(=O)O [CBK126917]", "unit.abbreviation": "%", "viability at 28.5 h, 10 µM": 99.5}
{"compound": "COc1ccc2[nH]nc(CN3CCCC(c4cc(O)nc(C)n4)C3)c2c1 (stereo not shown) [CBK306703]", "unit.abbreviation": "%", "viability at 28.5 h, 10 µM": 87.6}
{"compound": "CC1CCC(N(Cc2nnc(C(C)C)o2)CC2CCCO2)CC1 (stereo not shown) [CBK305169]", "unit.abbreviation": "%", "viability at 28.5 h, 10 µM": 89.7}
{"compound": "O=C1CO[C@H]2CN(Cc3ncc[nH]3)C[C@H]2N1Cc1ccncc1 [CBK289259]", "unit.abbreviation": "%", "viability at 28.5 h, 10 µM": 108}
{"compound": "CC(C)(C)NC(=O)Cn1c(-c2cccs2)cc2cccnc21 [CBK282455]", "unit.abbreviation": "%", "viability at 28.5 h, 10 µM": 97.1}
{"compound": "CCOC(=O)N1C(=O)c2ccccc2NC1(C(F)(F)F)C(F)(F)F [CBK025725]", "unit.abbreviation": "%", "viability at 28.5 h, 10 µM": 102}
{"compound": "O=C(CN1CCCCCC1)N/N=C/c1ccccc1Cl [CBK261589]", "unit.abbreviation": "%", "viability at 28.5 h, 10 µM": 89.4}
{"compound": "COc1ccc(C(=O)N/C(=C/c2ccc([N+](=O)[O-])cc2)c2nc3ccc(C(F)(F)F)cc3[nH]2)cc1OC [CBK263199]", "unit.abbreviation": "%", "viability at 28.5 h, 10 µM": 104}
{"compound": "OCCOc1cccc2cccnc12 [CBK001784]", "unit.abbreviation": "%", "viability at 28.5 h, 10 µM": 104}
{"compound": "Cc1cc(NS(=O)(=O)c2ccc(NC(=O)c3cc4ccccc4o3)cc2)no1 [CBK267597]", "unit.abbreviation": "%", "viability at 28.5 h, 10 µM": 88}
{"compound": "CCCCNC(=O)Nc1ncc(-c2ccc(C#N)cc2)nc1-c1ccc(C(=O)N2CCOCC2)cc1 [CBK105766]", "unit.abbreviation": "%", "viability at 28.5 h, 10 µM": 91.1}
{"compound": "Cc1nc2c(C(=O)N3CCOCC3)cnn2c(C)c1Cc1ccccc1 [CBK162201]", "unit.abbreviation": "%", "viability at 28.5 h, 10 µM": 113}
{"compound": "O=C1CCCN1CC(=O)N1CCCC1c1nc2ccccc2[nH]1 (stereo not shown) [CBK282315]", "unit.abbreviation": "%", "viability at 28.5 h, 10 µM": 86.3}
{"compound": "O=C(CSc1nnc(-c2cccnc2)o1)c1ccccc1 [CBK068446]", "unit.abbreviation": "%", "viability at 28.5 h, 10 µM": 139}
{"compound": "COc1ccc(NS(=O)(=O)c2cccc(Cl)c2C)c(C(=O)NCc2ccccc2)c1 [CBK113953]", "unit.abbreviation": "%", "viability at 28.5 h, 10 µM": 85.3}
{"compound": "Cc1cc(OC(=O)C2CCC(CNC(=O)OC(C)(C)C)CC2)c2c3c(c(=O)oc2c1)CCCC3 (stereo not shown) [CBK083590]", "unit.abbreviation": "%", "viability at 28.5 h, 10 µM": 102}
{"compound": "CN1CCCC1CCOc1ncccc1OCc1ccccc1 (stereo not shown) [CBK036313]", "unit.abbreviation": "%", "viability at 28.5 h, 10 µM": 93.1}

The reported measurements were obtained from paper PMC12040169.
